tested on: HepG2; test: Cytotoxicity against human HepG2 cells after 24 hrs assessed as inhibition of cell viability by MTT assay; assay type: cell-based; conditions: Homo sapiens, HepG2, 24 h
pIC50: −log10 of the molar value.
pIC50 below 5 gives not met; pIC50 at or above it gives met.

Recorded results for 2 compounds are shown here.
Compound: CC(C)(O)/C=C/C(=O)[C@](C)(O)[C@H]1[C@H](O)C[C@@]2(C)[C@@H]3CC=C4[C@@H](C[C@H](O)C(=O)C4(C)C)[C@]3(C)C(=O)C[C@]12C [CUCURBITACIN D]
Cat: not met

Compound: CC(=O)OC(C)(C)/C=C/C(=O)[C@](C)(O)[C@H]1[C@H](O)C[C@@]2(C)[C@@H]3CC=C4[C@@H](C=C(OC(C)C)C(=O)C4(C)C)[C@]3(C)C(=O)C[C@]12C
Cat: met

input: Determine whether measured pIC50 meets or exceeds 5 for CC(=O)OC(C)(C)/C=C/C(=O)[C@](C)(O)[C@H]1[C@H](O)C[C@@]2(C)[C@@H]3CC=C4[C@H](C[C@H](O)C(=O)C4(C)C)[C@]3(C)C(=O)C[C@]12C [CUCURBITACIN B]
output: not met

input: Determine whether measured pIC50 meets or exceeds 5 for CC(C)(O)/C=C/C(=O)[C@](C)(O)[C@H]1[C@H](O)C[C@@]2(C)[C@@H]3CC=C4[C@@H](C=C(O)C(=O)C4(C)C)[C@]3(C)C(=O)C[C@]12C [CUCURBITACIN I]
output: not met

input: Determine whether measured pIC50 meets or exceeds 5 for `CCOC1=C[C@@H]2C(=CC[C@@H]3[C@@]2(C)C(=O)C[C@]2(C)[C@@H]([C@@](C)(O)C(=O)/C=C/C(C)(C)OC(C)=O)[C@H](O)C[C@@]32C)C(C)(C)C1=O`
output: met

input: Determine whether measured pIC50 meets or exceeds 5 for `COC1=C[C@@H]2C(=CC[C@@H]3[C@@]2(C)C(=O)C[C@]2(C)[C@@H]([C@@](C)(O)C(=O)/C=C/C(C)(C)OC(C)=O)[C@H](OC(C)=O)C[C@@]32C)C(C)(C)C1=O`
output: not met

input: Determine whether measured pIC50 meets or exceeds 5 for `CC(C)(O)/C=C/C(=O)[C@](C)(O)[C@H]1[C@H](O)C[C@@]2(C)[C@@H]3CC=C4[C@@H](C=C(O[C@@H]5O[C@H](CO)[C@@H](O)[C@H](O)[C@H]5O)C(=O)C4(C)C)[C@]3(C)C(=O)C[C@]12C`
output: not met

input: Determine whether measured pIC50 meets or exceeds 5 for `CCCOC1=C[C@@H]2C(=CC[C@@H]3[C@@]2(C)C(=O)C[C@]2(C)[C@@H]([C@@](C)(O)C(=O)/C=C/C(C)(C)O)[C@H](O)C[C@@]32C)C(C)(C)C1=O`
output: met

---

system: HepG2; test: Cytotoxicity against human HepG2 cells after 24 hrs assessed as inhibition of cell viability by MTT assay; type: cell-based; conditions: Homo sapiens, HepG2, 24 h
Observable: pIC50
In simple prose, pIC50 is minus the logarithm base ten of a concentration in moles per litre.

Study these solved cases before continuing.
Compound: CC(=O)OC(C)(C)/C=C/C(=O)[C@](C)(O)[C@H]1[C@H](O)C[C@@]2(C)[C@@H]3CC=C4[C@@H](C=C(O)C(=O)C4(C)C)[C@]3(C)C(=O)C[C@]12C [CUCURBITACIN E]
Target or test system: HepG2
pIC50: 4.82

Compound: CC(=O)OC(C)(C)/C=C/C(=O)[C@](C)(O)[C@H]1[C@H](O)C[C@@]2(C)[C@@H]3CC=C4[C@@H](C=C(O[C@@H]5O[C@H](CO)[C@@H](O)[C@H](O)[C@H]5O)C(=O)C4(C)C)[C@]3(C)C(=O)C[C@]12C
Target or test system: HepG2
pIC50: 3.64

Compound: COC1=C[C@@H]2C(=CC[C@@H]3[C@@]2(C)C(=O)C[C@]2(C)[C@@H]([C@@](C)(O)C(=O)/C=C/C(C)(C)O)[C@H](O)C[C@@]32C)C(C)(C)C1=O
Target or test system: HepG2
pIC50: 4.82

Now let's try a different one.
Recorded result, `CC(C)(O)/C=C/C(=O)[C@](C)(O)[C@H]1[C@H](O)C[C@@]2(C)[C@@H]3CC=C4[C@@H](CC(=O)[C@@H](O)C4(C)C)[C@]3(C)C(=O)C[C@]12C` , pIC50: 4.10

---

// log10 EC50 lookup, one value per entry
test system: HepG2; experiment: Hepatoprotective activity in human HepG2 cells assessed as inhibition of CCl4-induced toxicity after 24 hrs by MTT assay; assay type: functional, cell-based; conditions: Homo sapiens, HepG2, 24 h
Quick note: numbers are log10 of EC50, with µM as the unit.

Compound: COC1=C[C@@H]2C(=CC[C@@H]3[C@@]2(C)C(=O)C[C@]2(C)[C@@H]([C@@](C)(O)C(=O)/C=C/C(C)(C)OC(C)=O)[C@H](O)C[C@@]32C)C(C)(C)C1=O
Target or test system: HepG2
log10 EC50: 0.38
//
Compound: CC(C)(O)/C=C/C(=O)[C@](C)(O)[C@H]1[C@H](O)C[C@@]2(C)[C@@H]3CC=C4[C@@H](C[C@H](O)C(=O)C4(C)C)[C@]3(C)C(=O)C[C@]12C
Target or test system: HepG2
log10 EC50: 0.95
//
Compound: CC(=O)OC(C)(C)/C=C/C(=O)[C@](C)(O)[C@H]1[C@H](O)C[C@@]2(C)[C@@H]3CC=C4[C@@H](C=C(O)C(=O)C4(C)C)[C@]3(C)C(=O)C[C@]12C
Target or test system: HepG2
log10 EC50: 0.51
//
Compound: COC1=C[C@@H]2C(=CC[C@@H]3[C@@]2(C)C(=O)C[C@]2(C)[C@@H]([C@@](C)(O)C(=O)CCC(C)(C)O)[C@H](O)C[C@@]32C)C(C)(C)C1=O
Target or test system: HepG2
log10 EC50: 0.70
//
Compound: COC1=C[C@@H]2C(=CC[C@@H]3[C@@]2(C)C(=O)C[C@]2(C)[C@@H]([C@@](C)(O)C(=O)/C=C/C(C)(C)OC(C)=O)[C@H](OC(C)=O)C[C@@]32C)C(C)(C)C1=O
Target or test system: HepG2
log10 EC50: 0.72
//
Compound: CC(=O)OC(C)(C)/C=C/C(=O)[C@](C)(O)[C@H]1[C@H](O)C[C@@]2(C)[C@@H]3CC=C4[C@H](C[C@H](O)C(=O)C4(C)C)[C@]3(C)C(=O)C[C@]12C
Target or test system: HepG2
log10 EC50: 1.02
//
Compound: COC1=C[C@@H]2C(=CC[C@@H]3[C@@]2(C)C(=O)C[C@]2(C)[C@@H]([C@@](C)(O)C(=O)/C=C/C(C)(C)O)[C@H](O)C[C@@]32C)C(C)(C)C1=O
Target or test system: HepG2
log10 EC50: 0.72
//
Compound: CC(C)(O)/C=C/C(=O)[C@](C)(O)[C@H]1[C@H](O)C[C@@]2(C)[C@@H]3CC=C4[C@@H](C=C(O[C@@H]5O[C@H](CO)[C@@H](O)[C@H](O)[C@H]5O)C(=O)C4(C)C)[C@]3(C)C(=O)C[C@]12C
Target or test system: HepG2
log10 EC50: 2.29

Recorded result, COc1cc(C2Oc3cc([C@H]4Oc5cc(O)cc(O)c5C(=O)[C@@H]4O)ccc3OC2CO)ccc1O (some centres not stated) , log10 EC50: 1.65

---

// EC50 lookup, one value per entry
system: HepG2; assay: Hepatoprotective activity in human HepG2 cells assessed as inhibition of CCl4-induced toxicity after 24 hrs by MTT assay; assay type: functional, cell-based; conditions: Homo sapiens, HepG2, 24 h
Write the answer as a number in µM, unit excluded.

Study these solved cases before continuing.
Smiles record: CC(C)(O)/C=C/C(=O)[C@](C)(O)[C@H]1[C@H](O)C[C@@]2(C)[C@@H]3CC=C4[C@@H](C=C(O)C(=O)C4(C)C)[C@]3(C)C(=O)C[C@]12C
Target or test system: HepG2
EC50, µM: 3.16

Smiles record: CC(=O)OC(C)(C)/C=C/C(=O)[C@](C)(O)[C@H]1[C@H](O)C[C@@]2(C)[C@@H]3CC=C4[C@@H](C=C(O[C@@H]5O[C@H](CO)[C@@H](O)[C@H](O)[C@H]5O)C(=O)C4(C)C)[C@]3(C)C(=O)C[C@]12C
Target or test system: HepG2
EC50, µM: 45.3

Recorded result, `CC(C)(O)/C=C/C(=O)[C@](C)(O)[C@H]1[C@H](O)C[C@@]2(C)[C@@H]3CC=C4[C@@H](CC(=O)[C@@H](O)C4(C)C)[C@]3(C)C(=O)C[C@]12C` , EC50: 13.8

Origin of the recorded values: ChEMBL document CHEMBL1764963
